- Experimental system: Carboxylic ester hydrolase (Equus caballus, UniProt Q9N1N9)
- Sequence (Q9N1N9 whole entry): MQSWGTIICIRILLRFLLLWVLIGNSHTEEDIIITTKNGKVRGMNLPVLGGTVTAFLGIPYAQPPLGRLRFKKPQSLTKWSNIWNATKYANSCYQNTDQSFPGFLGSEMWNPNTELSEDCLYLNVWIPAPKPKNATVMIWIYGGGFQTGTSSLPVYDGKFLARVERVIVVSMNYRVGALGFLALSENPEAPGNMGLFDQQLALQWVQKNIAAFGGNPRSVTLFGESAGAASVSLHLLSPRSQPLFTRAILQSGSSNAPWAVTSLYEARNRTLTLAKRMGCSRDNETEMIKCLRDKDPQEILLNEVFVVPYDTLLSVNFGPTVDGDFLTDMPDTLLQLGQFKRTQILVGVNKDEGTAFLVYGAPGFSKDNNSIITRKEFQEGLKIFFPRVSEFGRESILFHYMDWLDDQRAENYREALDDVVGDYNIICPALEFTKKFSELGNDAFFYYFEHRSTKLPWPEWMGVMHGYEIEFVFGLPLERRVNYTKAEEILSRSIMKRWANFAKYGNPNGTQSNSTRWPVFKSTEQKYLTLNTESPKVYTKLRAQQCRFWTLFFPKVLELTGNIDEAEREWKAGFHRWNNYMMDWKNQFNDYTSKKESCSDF
Attribute measured: IC50

Below: 5 molecules and their reported IC50.
CC1(c2ccc(F)cc2)CC(c2ccc(F)cc2)=C(C#N)C(=C(C#N)c2nnn[nH]2)N1 (centres undefined)	38.8 µM
CC1(c2cccc(Cl)c2)CC(c2cccc(Cl)c2)=C(C#N)C(=C(C#N)c2nnn[nH]2)N1 (centres undefined)	2.78 µM
CC1(c2ccccc2)CC(c2ccccc2)=C(C#N)C(=C(C#N)c2nnn[nH]2)N1 (centres undefined)	22.1 µM
COc1ccccc1C1=C(C#N)C(=C(C#N)c2nnn[nH]2)NC(C)(c2ccccc2OC)C1 (centres undefined)	0.29 µM
CC1(c2ccc(I)cc2)CC(c2ccc(I)cc2)=C(C#N)C(=C(C#N)C#N)N1 (centres undefined)	45.3 µM

[in] What measured IC50 is associated with CC1(c2ccc(O)cc2)CC(c2ccc(O)cc2)=C(C#N)C(=C(C#N)c2nnn[nH]2)N1 (centres undefined) on Carboxylic ester hydrolase (Equus caballus, UniProt Q9N1N9)?
[out] 2.45 µM

[in] What measured IC50 is associated with CC1(c2ccc(O)cc2)CC(c2ccc(O)cc2)=C(C#N)C(=C(C#N)C#N)N1 (centres undefined) on Carboxylic ester hydrolase (Equus caballus, UniProt Q9N1N9)?
[out] 42.2 µM

[in] What measured IC50 is associated with Cc1cccc(C2=C(C#N)C(=C(C#N)C#N)NC(C)(c3cccc(C)c3)C2)c1 (centres undefined) on Carboxylic ester hydrolase (Equus caballus, UniProt Q9N1N9)?
[out] 35.9 µM

[in] What measured IC50 is associated with CC1(c2cccc(F)c2)CC(c2cccc(F)c2)=C(C#N)C(=C(C#N)C#N)N1 (centres undefined) on Carboxylic ester hydrolase (Equus caballus, UniProt Q9N1N9)?
[out] 68.8 µM
